meta.source: patent US20160137639A1

Biological target: mouse RORγ (Mus musculus)
Construct: mouse, NM_011281.2 and from Ile251 to Lys516; expressed in transfected cells; host or cells: CHO cells (transient co-transfection with pG5-Luc reporter)
Sequence (P51450 251-516): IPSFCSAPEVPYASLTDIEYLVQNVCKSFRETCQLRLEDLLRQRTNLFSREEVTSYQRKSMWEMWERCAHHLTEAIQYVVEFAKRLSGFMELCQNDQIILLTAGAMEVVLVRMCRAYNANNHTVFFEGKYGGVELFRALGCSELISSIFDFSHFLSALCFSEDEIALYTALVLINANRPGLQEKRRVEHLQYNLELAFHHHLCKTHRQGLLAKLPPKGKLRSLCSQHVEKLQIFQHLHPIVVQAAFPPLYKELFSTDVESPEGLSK
Test: Luciferase reporter gene assay of inhibitory effect against RORγ transcriptional activity (GAL4-mRORγ plasmid in CHO cells)
Assay type: cell-based
Conditions: read-out: LUC EC50 (μM) mRORg
QUANTITY MEASURED: EC50

Solved cases below.
| COMPOUND | OBSERVED MEASUREMENT |
| --- | --- |
| Cc1c(F)cccc1NC(=O)CCc1nnc(CCC(C)C)n1C1CC1 [Example F-101] | > 3 µM |
| Cc1ccc(NC(=O)CC(CCOC(=O)N(C)C)c2nnc([C@H]3C[C@@H](CC(C)C)C3)n2C2CC2)c(C)c1 (mixture of isomers) [Example F-484] | < 3 µM |
| Cc1ccc(Br)cc1NC(=O)CCc1nnc(CCC(C)C)n1C1CC1 [Example F-140] | > 3 µM |
| Cc1ccc(NC(=O)C[C@H](CCO)c2nnc(-c3cc(CC(C)C)on3)n2C2CC2)c(C)c1 [Example F-457] | > 3 µM |
| Cc1ccc(NC(=O)C[C@H](CCC(=O)O)c2noc(-c3cc(C4CCCC4)on3)c2C2CC2)c(Cl)c1 [Example E-24] | < 3 µM |

Record CCn1c(CCC(=O)Nc2cccc3ccccc23)nnc1C1CCCCC1 [Example F-20] . Reported EC50: > 3 µM

Record Cc1c(Cl)cccc1NC(=O)CCc1nnc(CCCC(C)(C)C)n1C1CC1 [Example F-181] . Reported EC50: < 3 µM

Record Cc1ccc(NC(=O)CC(CCCO)c2nnc(CCCC(C)C)n2C2CC2)c(C)c1 (racemic) [Example F-214] . Reported EC50: < 3 µM

Record Cc1ccc(NC(=O)C[C@H](CCOCc2ccccc2)c2nnc([C@H]3C[C@@H](CC(C)C)C3)n2C2CC2)c(C)c1 [Example F-456] . Reported EC50: < 3 µM

Record Cc1ccc(NC(=O)[C@H]2C[C@@H](O)C[C@@H]2c2nnc([C@H]3C[C@@H](CC(C)C)C3)n2C2CC2)c(C)c1 (racemic) [Example F-431] . Reported EC50: < 3 µM

Record Cc1ccc(NC(=O)CCc2nnc(C3(O)CC(CC(C)C)C3)n2C2CC2)c(C)c1 (single isomer, unassigned) [Example F-429] . Reported EC50: < 3 µM

Record CC(C)(C)Cc1cc(-c2onc([C@@H](CCC(=O)O)CC(=O)Nc3ccc(F)cc3Cl)c2C2CC2)no1 [Example E-57] . Reported EC50: < 3 µM

Record Cc1ccc(NC(=O)[C@@H]2C[C@H](O)C[C@H]2c2nnc([C@H]3C[C@@H](CC(C)C)C3)n2C2CC2)c(C)c1 [Example F-471] . Reported EC50: > 3 µM

Record Cc1ccc(NC(=O)C[C@H](CCO)c2nnc(CCC3CCCCC3)n2C2CC2)c(C)c1 [Example F-385] . Reported EC50: < 3 µM

Record CC(C)CCc1nnc(CCC(=O)NCCc2ccccc2)n1C1CC1 [Example F-58] . Reported EC50: > 3 µM

Record Cc1c(Cl)cccc1NC(=O)CCc1nnc(CN2C(=O)c3ccccc3C2=O)n1C1CC1 [Example F-209] . Reported EC50: > 3 µM
